The reported measurements were obtained from patent US20250304927A1.

- target_system: mature evolved transglutaminase (SEQ ID NO: 5) (Streptomyces mobaraensis, UniProt P81453, G359A/K167H/K227R/K228R/N358M/Q126S/Q150A/Q200L)
- Construct: hexa-His tag with two amino acid linker (C); made in house; host or cells: E. coli BL21 (DE3)
- Sequence (P81453 other isoform, or with tags, fused parts or gaps Q126S/Q150A/K167H/Q200L/K227R/K228R/N358M/G359A): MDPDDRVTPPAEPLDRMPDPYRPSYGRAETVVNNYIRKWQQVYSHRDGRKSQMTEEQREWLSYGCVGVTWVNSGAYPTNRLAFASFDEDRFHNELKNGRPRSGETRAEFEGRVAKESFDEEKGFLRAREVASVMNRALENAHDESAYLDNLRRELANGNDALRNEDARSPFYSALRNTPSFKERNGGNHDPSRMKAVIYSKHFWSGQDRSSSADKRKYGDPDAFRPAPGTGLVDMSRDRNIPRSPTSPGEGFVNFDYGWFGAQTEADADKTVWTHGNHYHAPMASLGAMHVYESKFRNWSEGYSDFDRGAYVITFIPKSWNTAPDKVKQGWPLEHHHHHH
- experiment_summary: transglutaminase thermostability: activity after being held at 37-50 °C
- Format: biochemical
- Set-up: key: The symbol, —, represents not determined, neutral, or reduced performance
- study_conditions: relative to wild-type pro-peptide; held at 37° C.-50° C. for 30 minutes, diluted 10-fold to 100-fold
observation_type: Thermostability

substance	result
D2S, E7S, D21I: combination variant of pro-peptide SEQ ID NO: 2, Method B (MSNGAGSETKSYAETYRLTAIDVANINALNESAPAASSAGPSFRAP)	—
D2F: substitution variant of pro-peptide SEQ ID NO: 2 (MFNGAGEETKSYAETYRLTADDVANINALNESAPAASSAGPSFRAP) [Variant D2F]	—
E7S, D21T: combination variant of pro-peptide SEQ ID NO: 2, Method B (MDNGAGSETKSYAETYRLTATDVANINALNESAPAASSAGPSFRAP)	—
D2S, L18V, D22Q: combination variant of pro-peptide SEQ ID NO: 2, Method B (MSNGAGEETKSYAETYRVTADQVANINALNESAPAASSAGPSFRAP)	—
D2I, E2S, D21T: combination variant of pro-peptide SEQ ID NO: 2, Method B; E2S probably E7S (MINGAGSETKSYAETYRLTATDVANINALNESAPAASSAGPSFRAP)	—
L18V, D21T: combination variant of pro-peptide SEQ ID NO: 2, Method B (MDNGAGEETKSYAETYRVTATDVANINALNESAPAASSAGPSFRAP)	—
E7S, L18V, D21R: combination variant of pro-peptide SEQ ID NO: 2, Method B (MDNGAGSETKSYAETYRVTARDVANINALNESAPAASSAGPSFRAP)	—
D2S, E7S, D21T, D22Q: combination variant of pro-peptide SEQ ID NO: 2, Method B (MSNGAGSETKSYAETYRLTATQVANINALNESAPAASSAGPSFRAP)	—
E7S, L18V, D21I: combination variant of pro-peptide SEQ ID NO: 2, Method B (MDNGAGSETKSYAETYRVTAIDVANINALNESAPAASSAGPSFRAP)	—
D2S, E7S: combination variant of pro-peptide SEQ ID NO: 2, Method B (MSNGAGSETKSYAETYRLTADDVANINALNESAPAASSAGPSFRAP)	—
D2I, E7S, L18V, D21R: combination variant of pro-peptide SEQ ID NO: 2, Method B (MINGAGSETKSYAETYRVTARDVANINALNESAPAASSAGPSFRAP)	—
